System: MPP-89;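 also: growth inhibition of human MPP-89 cells, read out with a cell viability assay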
Assay: cells
Format: functional, cell-based, Homo sapiens
Conditions: Homo sapiens, MPP-89
Description: SANGER: Inhibition of human MPP-89 cell growth in a cell viability assay.
What IC50 was measured for each of the following?

Recorded IC50 of Cn1cnc2c(F)c(Nc3ccc(Br)cc3Cl)c(C(=O)NOCCO)cc21 , please.
> 4 µM

Likewise for CC(C)c1ccccc1Cc1cc(C(=O)Nc2ccc(S(=O)(=O)c3ccccc3C(C)(C)C)cc2)c(O)c(O)c1O ?
1.27 µM

Then what about the compound CN(C)C(=N)NC(=N)N ?
> 20000 µM

Try this compound next: Cc1cn(-c2cc(NC(=O)c3ccc(C)c(Nc4nccc(-c5cccnc5)n4)c3)cc(C(F)(F)F)c2)cn1
> 2 µM

Ok, now N#Cc1c(O)c2c(-c3ccc(-c4ccccc4O)cc3)csc2[nH]c1=O
> 1.02 µM

Input Nc1ccn([C@@H]2O[C@H](CO)[C@@H](O)C2(F)F)c(=O)n1
0.692 µM

Similarly, O=C(O)c1ccc(-c2c[nH]c3ncc(-c4ccccc4)cc23)cc1C1CCCC1 ?
9.27 µM

Continue with N[C@@H](CSC(c1ccccc1)(c1ccccc1)c1ccccc1)C(=O)O
> 5.12 µM

What do you get for CO[C@H]1C[C@@H]2CC[C@@H](C)[C@@](O)(O2)C(=O)C(=O)N2CCCC[C@H]2C(=O)O[C@H]([C@H](C)C[C@@H]2CC[C@@H](OC(=O)C(C)(CO)CO)[C@H](OC)C2)CC(=O)[C@H](C)/C=C(\C)[C@@H](O)[C@@H](OC)C(=O)[C@H](C)C[C@H](C)/C=C/C=C/C=C/1C ?
> 0.2 µM

Do the same for COc1cc2ncn(-c3cc(OCc4ccccc4C(F)(F)F)c(C(N)=O)s3)c2cc1OC [GW843682X] please
0.226 µM

Now this one: Nc1cccc2c1CN(C1CCC(=O)NC1=O)C2=O (stereo unspecified) [LENALIDOMIDE]
> 5 µM

###

Test system: M059J
Experiment: cells
Assay type: functional, cell-based, Homo sapiens
Settings: Homo sapiens, M059J
Description: SANGER: Inhibition of human M059J cell growth in a cell viability assay.
pIC50: −log10 of the molar value.
Could you please report measured pIC50 for the items listed next?

Returns the measured pIC50 for the input compound. Input: COc1cccc2c1C(=O)c1c(O)c3c(c(O)c1C2=O)C[C@@](O)(C(=O)CO)C[C@@H]3O[C@H]1C[C@H](N)[C@H](O)[C@H](C)O1
7.50

Then this compound: Oc1ccc2ccccc2c1SSc1c(O)ccc2ccccc12
< 4.49

Moving on to the next compound: CCN(CC)CCCCNc1ncc2cc(-c3cc(OC)cc(OC)c3)c(NC(=O)NC(C)(C)C)nc2n1
< 5.70

Repeat for the following compound: Cc1cn(-c2cc(NC(=O)c3ccc(C)c(Nc4nccc(-c5cccnc5)n4)c3)cc(C(F)(F)F)c2)cn1
< 5.70

###

Tested on: NCI-H1882;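 also: growth inhibition of the cell line, determined with a viability assay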
Test: cells
Type: functional, cell-based, Homo sapiens
Settings: Homo sapiens, NCI-H1882
Description: SANGER: Inhibition of human NCI-H1882 cell growth in a cell viability assay.
measurementLabel: IC50

Which IC50 is listed for Cc1ccc(-c2c(C(=O)CCl)n(CCCO)c3ncnc(N)c23)cc1 ?
> 4000 nM

Now give it for Nc1ccn([C@@H]2O[C@H](CO)[C@@H](O)C2(F)F)c(=O)n1 [GEMCITABINE] too.
82.4 nM

Same read-out for CCC/C=C/C=C/C(=O)O[C@H]1/C(=C/C(=O)OC)C[C@H]2C[C@H]([C@@H](C)O)OC(=O)C[C@H](O)C[C@@H]3C[C@H](OC(C)=O)C(C)(C)[C@](O)(C[C@@H]4C/C(=C/C(=O)OC)C[C@H](/C=C/C(C)(C)[C@]1(O)O2)O4)O3 [BRYOSTATIN 1] ?
> 8 nM

Now try COc1cc2ncn(-c3cc(OCc4ccccc4S(C)(=O)=O)c(C#N)s3)c2cc1OC [GSK-319347A] .
> 5000 nM

Field entry: Oc1ccc2ccccc2c1SSc1c(O)ccc2ccccc12
> 32000 nM
